Biological target: T1, human TREM2 (triggering receptor expressed on myeloid cells 2) (human) (UniProt Q9NZC2)
T1 sequence (looked up): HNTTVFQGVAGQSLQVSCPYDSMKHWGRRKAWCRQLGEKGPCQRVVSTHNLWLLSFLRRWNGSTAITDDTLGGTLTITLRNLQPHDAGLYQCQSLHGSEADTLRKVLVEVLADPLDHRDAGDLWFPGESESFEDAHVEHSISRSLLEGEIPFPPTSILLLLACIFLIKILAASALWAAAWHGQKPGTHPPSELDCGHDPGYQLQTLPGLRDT
Assay: 1st screen, 10 nM Ab
measureName: Binding Signal (fold over 6E7 parental antibody) (fold)
Respond numerically; units are fold and should not be typed.

Example entries and their recorded answers appear below.
binder: 6E7 antibody affinity modulation variant V38 (antibody, V domains shown) VH: EVQLVQSGAEVKKPGESLKISCKGSGYSFGSYWIAWVRQMPGKGLEWMGIIYPGDSDVRYSPSFQGQVTISADKSISTAYLQWSSLKASDTAMYFCARQRTFYYDSSDYFDYWGQGTLVTVSS VL: DIQMTQSPSSVSASVGDRVTITCRASQGISSWLAWYQQKPGKAPKLLIYAASSRQNGVPSRFSGSGSGTDFTLTISSLQPEDFATYFCQQADSHPRTFGQGTKLEIK
unitOfMeasurement: fold
quantitativeReadout: 4.34
//
binder: 6E7 antibody affinity modulation variant V13 (antibody, V domains shown) VH: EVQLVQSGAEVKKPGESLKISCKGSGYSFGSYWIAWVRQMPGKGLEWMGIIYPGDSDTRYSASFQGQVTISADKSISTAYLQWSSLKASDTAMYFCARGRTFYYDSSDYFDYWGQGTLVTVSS VL: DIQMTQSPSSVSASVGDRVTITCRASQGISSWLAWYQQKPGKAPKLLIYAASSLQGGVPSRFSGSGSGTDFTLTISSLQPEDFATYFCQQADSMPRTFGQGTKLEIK
unitOfMeasurement: fold
quantitativeReadout: 1.31

Read the next record carefully.
Prompt: Supply reported Binding Signal (fold over 6E7 parental antibody) belonging to this binder: 6E7 antibody affinity modulation variant V86 (antibody, V domains shown) VH: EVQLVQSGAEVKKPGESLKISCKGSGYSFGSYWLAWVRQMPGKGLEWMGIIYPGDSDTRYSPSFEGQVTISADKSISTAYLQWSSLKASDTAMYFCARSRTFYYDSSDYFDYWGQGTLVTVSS VL: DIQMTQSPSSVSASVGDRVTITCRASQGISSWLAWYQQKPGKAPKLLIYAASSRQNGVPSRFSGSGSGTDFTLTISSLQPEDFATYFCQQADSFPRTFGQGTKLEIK
Completion: 4.8

Hey, just so you know, these numbers are from patent US20250019437A1.
